# experimentNotes: qHTS assay to identify small molecule agonists of the AP-1 signaling pathway - cell viability counter screen (AID 1159525); note: nearly all actives have a fitted effect of over 55% in size
# conditionLabel: ME-180 (cervical carcinoma) AP-1-bla cells viability, ATP luminescence, 5 h; series mostly up to 76.8 µM
Results filed as inconclusive are left out. Calls of active or inactive are those of the source. Calls come from the whole dose curve.

{"compound": "COCC(=O)O", "outcome": "inactive"}
{"compound": "CC1=C(CC(=O)O)c2cc(F)ccc2/C1=C\\c1ccc(S(C)=O)cc1 (stereo not drawn)", "outcome": "inactive"}
{"compound": "S=c1nc[nH]c2nc[nH]c12", "outcome": "inactive"}

====

# experimentNotes: qHTS assay for small molecule agonists of the antioxidant response element (ARE) signaling pathway - cell viability counter screen (AID 743203); note: nearly all actives have a fitted effect of over 55% in size
# conditionLabel: ARE-bla HepG2 viability, CellTiter-Glo luminescence, 16 h; series mostly up to 73.3 µM
Results filed as inconclusive are left out. Active and inactive are the calls of the source. Calls come from the whole dose curve.
Respond with a class label; see active, inactive

{"compound": "CC1=C(/C=C/C(C)=C/C=C/C(C)=C/CO)C(C)(C)CCC1", "assignedClass": "inactive"}
{"compound": "CC1(C)CC(N=C=O)CC(C)(CN=C=O)C1 (centres undefined)", "assignedClass": "inactive"}
{"compound": "O=C(c1cc(O)c(O)c(O)c1)c1ccc(O)c(O)c1O", "assignedClass": "inactive"}
{"compound": "Cc1cc(=O)[nH]c(C(C)C)n1", "assignedClass": "inactive"}
{"compound": "S=c1nc[nH]c2nc[nH]c12", "assignedClass": "active"}
{"compound": "CCCCCCCCC", "assignedClass": "inactive"}

Please turn your attention to the following entry.
Could you check what this test reported for CC(=O)[C@@]1(O)CC[C@H]2[C@@H]3CCC4=CC(=O)CC[C@]4(C)[C@H]3CC[C@@]21C ?
inactive

====

# experimentNotes: qHTS assay to test for compound auto fluorescence at 535 nm (green) in HEK293 cell free culture (AID 720682)
# conditionLabel: cell-free medium, green autofluorescence 485/535 nm; series mostly up to 91.3 µM
The source made the active and inactive calls. The call rests on the fitted dose curve; in most records, active means well fitted curve in the direction sought with a large enough effect in the repeat runs; inconclusive means weak or mixed curves; inactive means flat fitted curve, though single readings scatter.
metric: outcome

Guide cases for outcome, answers given:
{"molecule": "C=C(C)C(=O)OCCC[Si](OC)(OC)OC", "outcome": "inactive"}
{"molecule": "S=c1nc[nH]c2nc[nH]c12", "outcome": "inactive"}
{"molecule": "CCCCOCCOCCOC(=O)CCCCC(=O)OCCOCCOCCCC", "outcome": "inactive"}
{"molecule": "C=C(C#N)C(=O)OCC", "outcome": "inactive"}

Please give outcome, item by item, for the list that follows.
1. O=S(=O)(Oc1ccc(Cl)cc1Cl)c1ccccc1
2. CC(C)n1c(/C=C/[C@@H](O)C[C@@H](O)CC(=O)O)c(-c2ccc(F)cc2)c2ccccc21
3. CC(C)(C)C1CCC(O)CC1 (stereo not drawn)
4. OCC#CCO

inactive
inactive
inactive
inactive

====

# experimentNotes: qHTS assay to identify small molecule antagonists of the estrogen receptor beta (ER-beta) signaling pathway - cell viability counter screen (AID 1259382); note: nearly all actives have a fitted effect of over 55% in size
# conditionLabel: ER-beta-UAS-bla HEK293T viability, CellTiter-Glo luminescence, 16 h; series mostly up to 92.4 µM
Results filed as inconclusive are left out. Active and inactive are the calls of the source. Calls come from the whole dose curve; as a rule, active = well fitted cell-killing curve with a large enough effect in the repeat runs; inconclusive = weak or mixed curves; inactive = flat fitted curve, though single readings scatter.
Please state which outcome applies, choosing from Yes (active), No (inactive)

Solved cases below.
{"compound": "Nc1c(S(=O)(=O)O)cc(Br)c2c1C(=O)c1ccccc1C2=O", "assignedClass": "No"}
{"compound": "OCCOCCOCCOCCO", "assignedClass": "No"}
{"compound": "CCCCCCCCCC(=O)O", "assignedClass": "No"}
{"compound": "CN(C)c1cccc(O)c1", "assignedClass": "No"}
{"compound": "O=C1N=C(O)CN1/N=C/c1ccc(-c2ccc([N+](=O)[O-])cc2)o1", "assignedClass": "No"}

Which outcome did this test record for the compound C=C1CC[C@H](O)CC1=C/C=C1\CCC[C@]2(C)[C@@H]([C@H](C)/C=C/[C@H](C)C(C)C)CC[C@@H]12 ?
Yes

Entry COC(=O)c1ccccc1O please
No

Next entry: O=C(c1ccc(O)cc1)c1ccc(O)cc1O
No
